Molecular target: T1, human IL-25 (human, UniProt Q9H293 33-177)
T1 construct: ELISA used bought R&D systems #1258-IL-025/CF; Treated as one molecule; also called IL-17E; human IL-17E
T1 sequence (looked up): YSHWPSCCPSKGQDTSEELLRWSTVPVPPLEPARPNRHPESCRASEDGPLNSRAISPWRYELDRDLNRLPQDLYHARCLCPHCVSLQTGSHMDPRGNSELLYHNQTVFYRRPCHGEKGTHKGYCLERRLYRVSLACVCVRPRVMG
Experiment: ELISA, plate coated with human IL-25 (hIl25-HIS), OD450, Example 4; unit from the axis lg(nM) and paragraph 95
OBSERVABLE: EC50 (nM)
Numbers only, in nM.

Worked set:
- BINDER: "VH1-2-VL2-1 (antibody, V domains shown, also called antibody formed by VH1-2 and VL2-1; copies: 2 + 2) VH: QVTLKESGPTLLKPTQTLTLTCTFSGFSLSTSGMGLGWIRQPPGKALEWLAHIWWDDVKHYKPALKSRLTITKDTSKNQVVLTITNVDPVDTATYYCARMGQLHYYGYDYAMDYWGQGTLVTVSS VL: DIQLTQSPSFLSASVGDRVTITCSASSSVSYMYWYQQKPGKAPKPLIYRTSNLASGVPSRFSGSGSGTEYTLTISSMQPEDFATYYCQLYHSYPPTWTFGQGTKLEIK"
  OBSERVABLE: "EC50"
  MEASURED: 0.208
- BINDER: "VH2-1 + VL1-2 (humanized anti-IL-25 antibody formed by VH2-1 and VL1-2) (antibody, V domains shown) VH: QVTLRESGPALLKPTQTLTLTCTFSGFSLSTSGMGLGWIRQPPGKALEWLAHIWWDDVKHYKPALKSRLTISKDTSKNQVVLTITNVDPVDTATYYCARMGQLHYYGYDYAMDYWGQGTLVTVSS VL: EIVLTQSPATLSASPGERVTISCSASSSVSYMYWYQQKPGQAPRPLIYRTSNLASGVPARFSGSGSGTDYTLTISSMEPEDFATYYCQLYHSYPPTWTFGQGTKLEIK"
  OBSERVABLE: "EC50"
  MEASURED: 0.196
- BINDER: "VH1-1 + VL1-2 (humanized anti-IL-25 antibody formed by VH1-1 and VL1-2) (antibody, V domains shown, Captured by anti-human Fc gamma antibody in SPR) VH: QVTLKESGPTLVKPTQTLTLTCTFSGFSLSTSGMGLGWIRQPPGKALEWLAHIWWDDVKHYKPALKSRLTITKDTSKNQVVLTMTNVDPVDTATYYCARMGQLHYYGYDYAMDYWGQGTLVTVSS VL: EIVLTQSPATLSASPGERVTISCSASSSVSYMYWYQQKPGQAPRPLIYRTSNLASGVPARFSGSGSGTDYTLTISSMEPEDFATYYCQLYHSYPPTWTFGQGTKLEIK"
  OBSERVABLE: "EC50"
  MEASURED: 0.252
- BINDER: "VH1-1 + VL2-1 (humanized anti-IL-25 antibody formed by VH1-1 and VL2-1) (antibody, V domains shown) VH: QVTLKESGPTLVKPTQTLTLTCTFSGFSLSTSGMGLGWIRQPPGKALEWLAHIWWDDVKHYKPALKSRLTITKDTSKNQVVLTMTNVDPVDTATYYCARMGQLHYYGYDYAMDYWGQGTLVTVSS VL: DIQLTQSPSFLSASVGDRVTITCSASSSVSYMYWYQQKPGKAPKPLIYRTSNLASGVPSRFSGSGSGTEYTLTISSMQPEDFATYYCQLYHSYPPTWTFGQGTKLEIK"
  OBSERVABLE: "EC50"
  MEASURED: 0.154
- BINDER: "VH2-1 + VL2-1 (humanized anti-IL-25 antibody formed by VH2-1 and VL2-1) (antibody, V domains shown) VH: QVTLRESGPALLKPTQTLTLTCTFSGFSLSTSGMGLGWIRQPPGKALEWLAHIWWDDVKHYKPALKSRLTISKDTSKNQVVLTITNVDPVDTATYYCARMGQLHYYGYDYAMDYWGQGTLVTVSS VL: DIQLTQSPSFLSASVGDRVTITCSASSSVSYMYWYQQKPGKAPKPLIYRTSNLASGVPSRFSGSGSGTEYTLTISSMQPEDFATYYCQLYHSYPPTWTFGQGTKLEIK"
  OBSERVABLE: "EC50"
  MEASURED: 0.187

# context switch: different binder, same EC50
Lookup: Which EC50 value is on record for murine anti-IL-25 monoclonal antibody 18H3 (antibody, V domains shown, also called parental antibody; parental murine mAb) VH: QVTLKESGPGILQPSQTLSLTCSFSGFSLSTSGMGLGWIRQPSGKGLEWLAHIWWDDVKHYKPALKSRLTISKDISSSQVFLTIASVDTADTATYYCARMGQLHYYGYDYAMDYWGQGTSVTVSS VL: QIVLTQSPAIMSASPGEKVTISCSASSSVSYMYWYQQKPGSSPKPWIYRTSNLASGVPARFSGSGSGTSYSLTISSMEAEDAATYYCQLYHSYPPTWTFGGGTKLEIK ?
Found: 0.187
